Reference for the values: the RNAGym collection of RNA variant scans (doi:10.1101/gr.219683.116)

B1: mRNA-splicing (parent)
chain: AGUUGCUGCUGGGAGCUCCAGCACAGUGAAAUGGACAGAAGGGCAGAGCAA

Variants of: B1
Test: exon inclusion enrichment index; higher = more inclusion; WT1 exon 5 minigene, HEK293
So basically, the class depends on measured exon inclusion enrichment index, and the ranges are 0 (below 0.4), 1 (0.4 to below 2), 2 (2 or more)

# example entries with known answers
monomer-sequence	classification
AGUUACGGCCGGGAGCUCCAGCACAGUGAAAUGGACAGAAGGGCAGAGCAA	1
AGUUAUAUAUUAGAGCUCCAGCACAGUGAAAUGGACAGAAGGGCAGAGCAA	0
AGUUGCUGCUGGGAGCUCCAGCUUAGUGAAAUGGACAGAAGGGCAGAGCAA	0
AGUUGCAACUGGGAGCUCCAGCACAGUGAAAUGGACAGAAGGGCAGAGCAA	1
AGUCGCUGCUGGGAGCUCCAGCACAGUGAAAUGGACAGAAGGGCAGAGCAA	0
AGUUCUUCUCGGGAGCUCCAGCACAGUGGCAUGGACAGAAGGGCAGAGCAA	1

Next, consider the following variant.
Ask: Could you tell me which band AGUUGACGACGGGAGCUCCAGCACAGUGAAAUGGACAGCGGGGCAGAGCAA belongs to?
Result: 2
